- target under test: SARS-CoV-2 Spike (S) trimer (SARS-CoV-2), P0DTC2
- procedure text: ELISA, S trimer coated, antibody at 1:50 dilution
- experimental parameters: remark: other sources report otherwise
test readout: Optical Density (OD; 450 nm) (OD 450 nm)
Just the number in OD 450 nm, nothing appended.

Output measured Optical Density (OD; 450 nm) for this item: AB-009734 (antibody, V domains shown) VH: QVHLVQSGAEVKTPGASVRVSCKASGYTFTSHYMHWVRQAPGQGLEWMGLINPSGSGTAYPQHFQGRVTMTRDTSTTTDYMDLSSLRSEDTAMYFCARMERSGAFDLWGQGTMVTVSS VL: EIVLTQSPGTLSLSPGERATLSCRASQTISSRYLAWYYQKPGQAPRLLIQGSSIRATGIPDRFSGSGSGTDFTLTISRLEPEDFAVYYCQHYGSSPPMYTFGQGTKLEIK
3.57

Let me know recorded Optical Density (OD; 450 nm) for AB-009281 (antibody, V domains shown) VH: EVQLVETGGGLIQPGGSLRLSCAASGFTVSSNYMSWVRQAPGKGLEWVSVIYSGGSTYYADSVKGRFTISRDNSKNTLYLQMNSLRAEDTAVYYCARDLYYYGMDVWGQGTTVTVSS VL: DIQLTQSPSFLSASVGDRVTITCRASQGISSYLAWYQQKPGKAPKLLIYAASTLQSGVPSRFSGSGSGTEFTLTISSLQPEDFATYYCQQLNSYPTFGQGTKVEIK , thanks.
2.6

Query Optical Density (OD; 450 nm) for AB-009627 (antibody, V domains shown) VH: QVQLQQWGAGLLKPSETLSLTCAVYGGSFSGYYWSWIRQPPGKGLEWIGEINHSGSTNYNPSLKSRVTISVDTSKNQFSLKLSSVTAADTAVFYCARGGYSSSWYGEKYWFDPWGQGTLVTVSS VL: QSALTQPRSVSGSPGQSVTISCTGTSSDVGGYNYVSWYQQHPGKAPKLMIYDVSKRPSGVPDRFSGSKSGNTASLTISGLQAEDEADYYCCSYAGSPYVFGTGTKVTVL
0.823

Identify measured Optical Density (OD; 450 nm) corresponding to AB-009620 (antibody, V domains shown) VH: QITLKESGPTLVKPTQTLTLTCTFSGFSLSTSGVGVGWIRQPPGKALEWLALIYWDDDKRYSPSLKSRLTITKDTSKNQVVLTMTNMDPVDTATYYCAHHEVATVFDYWGQGTLVTVSS VL: QSALTQPASVSGSPGQSITISCTGTSSDVGAYNYVSWYQQHPGKAPKLMIYEVSNRPSGVSNRFSGSKSGNTASLTISGLQAEDEADYYCSSYTSSSTVFGGGTKLTVL
2.7
